Target: PKR R532W (Homo sapiens, UniProt P30613, R532W)
Sequence (P30613 whole entry R532W): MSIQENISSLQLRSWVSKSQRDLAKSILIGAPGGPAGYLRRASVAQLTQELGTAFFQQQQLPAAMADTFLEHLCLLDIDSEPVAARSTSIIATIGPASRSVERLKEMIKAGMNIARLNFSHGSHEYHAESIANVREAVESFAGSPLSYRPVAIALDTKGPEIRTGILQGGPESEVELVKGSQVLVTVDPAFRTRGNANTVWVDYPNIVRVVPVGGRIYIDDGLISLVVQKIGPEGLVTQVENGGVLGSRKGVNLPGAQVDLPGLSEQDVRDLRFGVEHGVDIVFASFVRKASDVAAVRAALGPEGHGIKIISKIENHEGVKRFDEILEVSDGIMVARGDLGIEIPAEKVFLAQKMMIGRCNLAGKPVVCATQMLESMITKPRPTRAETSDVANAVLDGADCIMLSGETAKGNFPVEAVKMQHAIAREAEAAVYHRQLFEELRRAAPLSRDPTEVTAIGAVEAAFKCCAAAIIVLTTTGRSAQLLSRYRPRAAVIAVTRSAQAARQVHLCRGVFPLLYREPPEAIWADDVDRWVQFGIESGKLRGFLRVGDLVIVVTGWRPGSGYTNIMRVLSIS
Test: PKR Mutant Assay, AC50 against PKR R532W
Type: biochemical
Conditions: mutant PKR R532W enzyme
Description: • PKR or PKR mutant enzyme solution was diluted in assay buffer. • 2 μL of test compound was added into wells first, and then 180 μL reaction mix was added. • Reactions mixture with test compound was assembled except for ADP, and plates were stored for 60 minutes at room temperature. • 20 uL ADP was added to start reaction at room temperature and reaction progress was measured as changes in absorbance at 340 nm wavelength at room temperature. […]
Outcome measure: AC50

// `Cc1nc(F)ccc1C1(O)CCN(C(=O)c2ccc(NS(=O)(=O)c3ccc(F)c4cccnc34)cc2)CC1` : AC50 value = 101 to 1000 nM

// `CC(C)CC1(O)CCN(C(=O)c2ccc(NS(=O)(=O)c3cccc4ocnc34)cc2)CC1` : AC50 value = 101 to 1000 nM

// `O=C(c1ccc(NS(=O)(=O)c2csc3cccnc23)cc1)N1CCC(O)(c2ccccc2Cl)CC1` : AC50 value = 101 to 1000 nM

// `CC(F)(F)CCC1(O)CCN(C(=O)c2ccc(NS(=O)(=O)c3cc(F)cc4sc(N)nc34)cc2)CC1` : AC50 value = < 100 nM

// `CC(C)CC1(O)CCN(C(=O)c2ccc(NS(=O)(=O)c3ccc(F)c4cccnc34)cc2)CC1` : AC50 value = < 100 nM

// `Cn1cc(C2(O)CCN(C(=O)c3ccc(NS(=O)(=O)c4cccc5scnc45)cc3)CC2)cn1` : AC50 value = < 100 nM

// `O=C(c1ccc(NS(=O)(=O)c2cccc3nsnc23)cc1)N1CCC(O)(c2ccccc2)CC1` : AC50 value = 1010 to 10000 nM

// `O=C(c1ccc(NS(=O)(=O)c2cccc3cccnc23)cc1)N1CCC(O)(CCO)CC1` : AC50 value = 101 to 1000 nM

// `O=C(c1ccc(NS(=O)(=O)c2cccc3cccnc23)cc1)N1CCC(O)(c2cccc3c2OCCO3)CC1` : AC50 value = 101 to 1000 nM

// `O=C(c1ccc(NS(=O)(=O)c2cccc3scnc23)cc1)N1CCC(O)(c2ccccc2C(F)F)CC1` : AC50 value = < 100 nM

// `O=C(c1ccc(NS(=O)(=O)c2cccc3scnc23)cc1)N1CCC(O)(CCCC(F)(F)F)CC1` : AC50 value = < 100 nM

// `CC(C)CC1(O)CCN(C(=O)c2ccc(NS(=O)(=O)c3ccnc4scnc34)cc2)CC1` : AC50 value = > 10000 nM

// `O=C(c1ccc(NS(=O)(=O)c2cccc3cccnc23)cc1)N1CCC(O)(Cc2cccc(C(F)(F)F)c2)CC1` : AC50 value = < 100 nM

// `CC1(O)CCN(C(=O)c2ccc(NS(=O)(=O)c3cccc4cccnc34)cc2)CC1` : AC50 value = 1010 to 10000 nM

// `O=C(c1ccc(NS(=O)(=O)c2cccc3cccnc23)cc1OC(F)F)N1CCC(O)(c2ccccc2Cl)CC1` : AC50 value = < 100 nM

// CC(C)CC1(O)CCN(C(=O)c2ccc(NS(=O)(=O)c3ccc(F)c4scnc34)cc2)CC1 [Compound 240] : AC50 value = 101 to 1000 nM

// CC(CC1(O)CCN(C(=O)c2ccc(NS(=O)(=O)c3cccc4sc(N)nc34)cc2)CC1)C(F)(F)F (stereo not shown) : AC50 value = < 100 nM

// `CC(C)CC1(O)CCN(C(=O)c2ccc(NS(=O)(=O)c3cccc4ncc(N)nc34)cc2)CC1` : AC50 value = < 100 nM

// `CC(C)CC1(O)CCN(C(=O)c2ccc(NS(=O)(=O)Cc3ccccn3)cc2)CC1` : AC50 value = > 10000 nM

Just for reference, patent US9108921B2 is where these values come from.
